The origin of these recorded values is the supplement of paper PMC3334620.

- tested on: Sko1 (UniProt Q02100)
- Sequence: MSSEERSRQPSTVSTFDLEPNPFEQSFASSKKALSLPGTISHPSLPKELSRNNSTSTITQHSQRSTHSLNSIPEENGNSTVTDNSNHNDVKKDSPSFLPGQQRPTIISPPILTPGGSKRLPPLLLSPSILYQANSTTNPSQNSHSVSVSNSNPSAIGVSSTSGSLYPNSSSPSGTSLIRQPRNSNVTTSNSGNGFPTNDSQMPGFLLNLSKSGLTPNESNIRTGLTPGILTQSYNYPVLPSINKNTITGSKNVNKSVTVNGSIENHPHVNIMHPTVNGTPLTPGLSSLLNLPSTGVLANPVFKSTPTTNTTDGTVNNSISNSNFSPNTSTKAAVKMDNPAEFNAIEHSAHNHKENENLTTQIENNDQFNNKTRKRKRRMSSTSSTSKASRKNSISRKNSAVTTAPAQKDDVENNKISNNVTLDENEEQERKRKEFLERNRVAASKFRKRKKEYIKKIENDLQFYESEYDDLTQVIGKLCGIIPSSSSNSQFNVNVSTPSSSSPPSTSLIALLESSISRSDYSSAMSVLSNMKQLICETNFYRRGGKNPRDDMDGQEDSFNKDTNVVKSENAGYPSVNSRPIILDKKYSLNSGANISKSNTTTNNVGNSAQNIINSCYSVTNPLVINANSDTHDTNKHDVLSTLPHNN
- test name: PBM E-score (8-mer binding enrichment) (E-score (-0.5 to 0.5)); higher = stronger / more preferred TF binding
- applied conditions: protein concentration: 200 nM; construct: GST-full length
Over roughly 33,000 sequences, “E-score (-0.5 to 0.5)” has its median near -0.032; the highest 2% begin near 0.36. The entries come from a sample that favours the highest values as a whole.
Decision: PBM E-score compared against 0.3; not below it gives yes (1), below it gives no (0).

Data request: I'd appreciate it if you could say whether "CCGCGTCG" has PBM E-score at least equal to 0.3.
Data returned: no (0)

Data request: Note, next up: "CCTATGTA"
Data returned: no (0)

---

Catalogue of sequences with associated PBM E-score
- tested on: Sko1 (UniProt Q02100)
- Sequence: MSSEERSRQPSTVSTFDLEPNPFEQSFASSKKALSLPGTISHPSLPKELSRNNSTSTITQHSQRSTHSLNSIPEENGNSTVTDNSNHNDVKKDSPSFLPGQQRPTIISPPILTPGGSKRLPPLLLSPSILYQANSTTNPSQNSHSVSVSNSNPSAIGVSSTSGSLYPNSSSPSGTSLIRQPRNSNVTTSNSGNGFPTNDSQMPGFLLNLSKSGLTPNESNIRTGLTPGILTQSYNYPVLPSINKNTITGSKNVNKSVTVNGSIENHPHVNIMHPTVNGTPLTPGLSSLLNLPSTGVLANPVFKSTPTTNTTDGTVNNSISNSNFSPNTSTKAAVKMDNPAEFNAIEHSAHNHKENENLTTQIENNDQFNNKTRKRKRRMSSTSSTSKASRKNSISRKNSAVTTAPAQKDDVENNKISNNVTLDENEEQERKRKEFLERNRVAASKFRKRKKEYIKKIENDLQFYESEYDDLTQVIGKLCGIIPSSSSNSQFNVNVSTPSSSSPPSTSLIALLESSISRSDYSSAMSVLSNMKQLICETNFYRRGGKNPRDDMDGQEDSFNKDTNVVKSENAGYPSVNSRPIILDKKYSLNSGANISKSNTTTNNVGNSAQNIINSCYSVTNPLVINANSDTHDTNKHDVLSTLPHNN
- test name: PBM E-score (8-mer binding enrichment) (E-score (-0.5 to 0.5)); higher = stronger / more preferred TF binding
- applied conditions: protein concentration: 200 nM; construct: GST-full length
Whole data set: some 33,000 sequences, median “E-score (-0.5 to 0.5)” near -0.032, cut for the highest 2% near 0.36. The list comes from a sample in which the highest values are over-represented; it also holds close analogues and randomly drawn sequences.
Give a plain numeric answer without units written out.

{"input sequence": "CCGTCACC", "tested on": "Sko1 (UniProt Q02100)", "PBM E-score": 0.101}
{"input sequence": "AGAGGGCT", "tested on": "Sko1 (UniProt Q02100)", "PBM E-score": -0.406}
{"input sequence": "AAGTCACT", "tested on": "Sko1 (UniProt Q02100)", "PBM E-score": 0.144}
{"input sequence": "CCATTACG", "tested on": "Sko1 (UniProt Q02100)", "PBM E-score": 0.438}
{"input sequence": "ACGCAATG", "tested on": "Sko1 (UniProt Q02100)", "PBM E-score": 0.399}
{"input sequence": "AGGCAATG", "tested on": "Sko1 (UniProt Q02100)", "PBM E-score": 0.00123}
{"input sequence": "CGCGTAAA", "tested on": "Sko1 (UniProt Q02100)", "PBM E-score": 0.311}
{"input sequence": "GTCGAACA", "tested on": "Sko1 (UniProt Q02100)", "PBM E-score": -0.00814}
{"input sequence": "ATGTCACA", "tested on": "Sko1 (UniProt Q02100)", "PBM E-score": 0.324}
{"input sequence": "CCATTACC", "tested on": "Sko1 (UniProt Q02100)", "PBM E-score": -0.148}

Data request: What does the record list as PBM E-score for "AAGTCACA" ?
Data returned: 0.0509

Data request: Note, next up: "GCGCAATA"
Data returned: 0.0795

Data request: Note, next up: "GGCGTACA"
Data returned: -0.0526

Data request: Note, next up: "AGCGTAAA"
Data returned: 0.189

Data request: Note, next up: "GTCTGGGA"
Data returned: -0.133

Data request: Note, next up: "ATAAATAC"
Data returned: 0.23

---

- tested on: Sko1 (UniProt Q02100)
- Sequence: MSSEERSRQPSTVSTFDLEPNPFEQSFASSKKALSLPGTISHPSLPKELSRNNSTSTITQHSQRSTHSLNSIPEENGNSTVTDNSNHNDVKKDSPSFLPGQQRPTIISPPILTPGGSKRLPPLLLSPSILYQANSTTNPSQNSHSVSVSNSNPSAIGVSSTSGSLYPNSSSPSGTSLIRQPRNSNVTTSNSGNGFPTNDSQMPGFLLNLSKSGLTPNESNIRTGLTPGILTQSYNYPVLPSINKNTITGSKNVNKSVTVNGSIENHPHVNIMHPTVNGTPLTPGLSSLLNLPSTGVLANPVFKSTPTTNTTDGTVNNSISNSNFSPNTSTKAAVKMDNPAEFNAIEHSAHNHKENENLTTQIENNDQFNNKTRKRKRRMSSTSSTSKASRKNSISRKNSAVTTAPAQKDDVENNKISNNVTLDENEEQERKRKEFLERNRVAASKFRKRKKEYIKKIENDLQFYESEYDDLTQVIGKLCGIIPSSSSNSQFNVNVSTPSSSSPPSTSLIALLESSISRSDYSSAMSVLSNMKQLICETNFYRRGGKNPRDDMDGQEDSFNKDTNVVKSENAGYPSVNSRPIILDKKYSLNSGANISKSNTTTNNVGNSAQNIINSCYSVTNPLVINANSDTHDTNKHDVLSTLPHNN
- test name: PBM E-score (8-mer binding enrichment) (E-score (-0.5 to 0.5)); higher = stronger / more preferred TF binding
- applied conditions: protein concentration: 200 nM; construct: GST-full length
Over roughly 33,000 sequences, “E-score (-0.5 to 0.5)” has its median near -0.032; the highest 2% begin near 0.36. For the sample, the highest values were picked, then their nearest neighbours and some sequences at random.
Catalogue of sequences with associated PBM E-score

Use the examples below as a reference point.
{"input sequence": "CTTGTTAC", "PBM E-score": 0.094}
{"input sequence": "CCACATCA", "PBM E-score": 0.175}

Data request: What does the record list as PBM E-score for "ACCATACT" ?
Data returned: -0.0266

Data request: Note, next up: "CAATGACC"
Data returned: 0.0293

---

- tested on: Sko1 (UniProt Q02100)
- Sequence: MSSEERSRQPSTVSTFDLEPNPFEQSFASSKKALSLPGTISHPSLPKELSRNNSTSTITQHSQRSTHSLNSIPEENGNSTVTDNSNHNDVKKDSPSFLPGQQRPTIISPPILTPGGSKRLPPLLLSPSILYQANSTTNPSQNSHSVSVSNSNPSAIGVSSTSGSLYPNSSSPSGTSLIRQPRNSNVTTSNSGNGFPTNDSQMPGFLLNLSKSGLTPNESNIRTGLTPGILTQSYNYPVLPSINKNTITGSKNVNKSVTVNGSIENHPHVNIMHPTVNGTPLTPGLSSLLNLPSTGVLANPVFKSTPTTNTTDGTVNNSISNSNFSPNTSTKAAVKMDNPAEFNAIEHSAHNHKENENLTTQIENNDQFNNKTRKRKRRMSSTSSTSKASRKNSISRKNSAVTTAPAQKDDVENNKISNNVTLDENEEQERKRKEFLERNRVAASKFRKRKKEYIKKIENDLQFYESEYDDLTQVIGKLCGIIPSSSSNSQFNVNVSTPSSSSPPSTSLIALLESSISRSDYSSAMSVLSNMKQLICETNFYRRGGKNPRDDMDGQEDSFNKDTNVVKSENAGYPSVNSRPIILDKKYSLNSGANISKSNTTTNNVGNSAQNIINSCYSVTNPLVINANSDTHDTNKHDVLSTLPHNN
- test name: PBM E-score (8-mer binding enrichment) (E-score (-0.5 to 0.5)); higher = stronger / more preferred TF binding
- applied conditions: protein concentration: 200 nM; construct: GST-full length
The full ranking holds about 33,000 sequences; the median of “E-score (-0.5 to 0.5)” is about -0.032, and the highest 2% start at about 0.36. Many of the other results were omitted from the sample, so the highest values are more common in it than they were.
Decision: PBM E-score compared against 0.1; not below it gives 1, below it gives -1.

These solved cases illustrate the format of a correct answer.
{"input sequence": "AAAGACTA", "assigned class": -1}
{"input sequence": "AAGTATCG", "assigned class": -1}
{"input sequence": "GCGTATCA", "assigned class": 1}
{"input sequence": "AAGTGATC", "assigned class": 1}
{"input sequence": "AACAGAGG", "assigned class": -1}

Switching to the query record.
Data request: I'd appreciate it if you could say whether "ACCTATCT" has PBM E-score at least equal to 0.1.
Data returned: -1
